Biological target: Calcium/calmodulin-dependent protein kinase type IV (Homo sapiens, UniProt Q16566)
Sequence (Q16566 whole entry): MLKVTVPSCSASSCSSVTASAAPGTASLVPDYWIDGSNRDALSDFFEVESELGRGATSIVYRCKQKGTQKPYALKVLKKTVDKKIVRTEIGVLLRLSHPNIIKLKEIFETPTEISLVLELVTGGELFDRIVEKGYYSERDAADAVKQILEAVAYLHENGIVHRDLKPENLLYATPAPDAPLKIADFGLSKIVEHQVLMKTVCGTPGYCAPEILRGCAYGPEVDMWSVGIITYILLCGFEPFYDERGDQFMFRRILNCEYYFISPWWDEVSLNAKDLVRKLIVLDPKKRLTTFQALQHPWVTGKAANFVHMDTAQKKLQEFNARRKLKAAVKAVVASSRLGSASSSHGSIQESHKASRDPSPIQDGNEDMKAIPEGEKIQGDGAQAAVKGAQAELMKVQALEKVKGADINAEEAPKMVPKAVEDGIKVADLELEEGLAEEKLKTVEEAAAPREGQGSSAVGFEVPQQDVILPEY
Assay: Inhibition of human recombinant CaMK4
pIC50: −log10 of the molar value.
measured-metric: pIC50

Output measured pIC50 for this item: "CN(C)CCCNC(=O)c1csc2nc(-c3ccc(NC(=O)Nc4cc(C(C)(C)C)on4)cc3)cn12"
< 5.00
